# Tested on: Mus musculus
# PROCEDURE_TEXT: Antiinflammatory activity in C57BL/6J mouse model of DSS-induced colon inflammation assessed as reduction of colon IL6 level at 2.1 mg/kg/day, po for 21 days followed by compound dosing for 8 days co-administered with DSS followed by 2.1 mg/kg/day, po dosing for 6 days in absence of DSS measured on days 29 and day 35 by chemiluminescence assay
# Format: functional, organism-based
The source made the active and inactive calls. The rule behind the calls is not given here.

{"COMPOUND": "OC[C@H]1O[C@@H](Oc2cc(O)cc(/C=C/c3ccc(O)cc3)c2)[C@H](O)[C@@H](O)[C@@H]1O", "Activity": "Active"}
{"COMPOUND": "CCCC(=O)OC[C@H]1O[C@@H](Oc2cc(O)cc(/C=C/c3ccc(O)cc3)c2)[C@H](O)[C@@H](O)[C@@H]1O", "Activity": "Active"}
{"COMPOUND": "Oc1ccc(/C=C/c2cc(O)cc(O)c2)cc1 [RESVERATROL]", "Activity": "Active"}
{"COMPOUND": "OC[C@H]1O[C@@H](Oc2cc(/C=C/c3ccc(O)cc3)cc(O[C@@H]3O[C@H](CO)[C@@H](O)[C@H](O)[C@H]3O)c2)[C@H](O)[C@@H](O)[C@@H]1O", "Activity": "Active"}
{"COMPOUND": "CCCCCCCC(=O)OC[C@H]1O[C@@H](Oc2cc(O)cc(/C=C/c3ccc(O)cc3)c2)[C@H](O)[C@@H](O)[C@@H]1O", "Activity": "Active"}
